Target: UniProtKB P08588
Sequence (P08588 whole entry): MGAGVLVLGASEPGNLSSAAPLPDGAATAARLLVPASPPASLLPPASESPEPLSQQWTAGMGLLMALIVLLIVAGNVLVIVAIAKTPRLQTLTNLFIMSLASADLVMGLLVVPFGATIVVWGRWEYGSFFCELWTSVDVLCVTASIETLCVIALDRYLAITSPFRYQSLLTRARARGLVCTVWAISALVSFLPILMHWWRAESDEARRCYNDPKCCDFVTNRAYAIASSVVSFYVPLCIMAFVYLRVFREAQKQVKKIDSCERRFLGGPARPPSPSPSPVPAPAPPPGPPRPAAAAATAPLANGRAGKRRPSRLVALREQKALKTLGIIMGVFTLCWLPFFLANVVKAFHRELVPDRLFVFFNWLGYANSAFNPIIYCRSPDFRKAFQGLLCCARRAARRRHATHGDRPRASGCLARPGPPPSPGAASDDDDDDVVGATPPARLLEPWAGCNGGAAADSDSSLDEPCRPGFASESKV
Assay: Inhibition of human beta1 adrenergic receptor at 1 uM relative to control

Smiles Str	inhibition at 1 µM / %
CCc1nc2c(N3CCNCC3)nccc2n1S(=O)(=O)c1cccc(Cl)c1	10

###

Biological target: histamine H1 receptor (HRH1) (Homo sapiens)
Sequence (P35367 whole entry): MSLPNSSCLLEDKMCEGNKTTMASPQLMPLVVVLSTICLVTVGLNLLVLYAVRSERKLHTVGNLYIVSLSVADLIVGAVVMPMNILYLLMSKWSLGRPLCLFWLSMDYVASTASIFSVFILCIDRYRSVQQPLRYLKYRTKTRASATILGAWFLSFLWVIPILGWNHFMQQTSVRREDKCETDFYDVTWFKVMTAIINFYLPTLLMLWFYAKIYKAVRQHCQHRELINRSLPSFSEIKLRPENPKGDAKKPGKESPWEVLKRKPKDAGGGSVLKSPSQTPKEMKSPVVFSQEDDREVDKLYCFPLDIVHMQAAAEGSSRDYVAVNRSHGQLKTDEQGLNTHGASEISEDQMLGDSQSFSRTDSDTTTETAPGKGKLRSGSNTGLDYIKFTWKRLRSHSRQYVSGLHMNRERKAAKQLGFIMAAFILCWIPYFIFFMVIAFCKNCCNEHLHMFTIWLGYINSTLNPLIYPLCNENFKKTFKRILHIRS
Assay: Inhibition of human HRH1 at 1 uM relative to control
Measurement Kind: inhibition at 1 µM (%)

Smiles Str	Unit Abbrev	Recorded Result
CCc1nc2c(N3CCNCC3)nccc2n1S(=O)(=O)c1cccc(Cl)c1	%	6

###

Test: Neurotoxicity in human SH-SY5Y cells assessed as reduction in cell viability incubated for 24 hrs by MTT assay
Format: toxicity, cell-based

Compound	Unit Abbrev	IC50 at 24 h
COc1cccc2c1C(=O)c1c(O)c3c(c(O)c1C2=O)C[C@@](O)(C(=O)CO)C[C@@H]3O[C@H]1C[C@H](N)[C@H](O)[C@H](C)O1 [DOXORUBICIN]	nM	2300
